Where do these numbers come from? They come from patent US20220348569A1.

test system: SARS-CoV-2 pseudoviruses carrying spike mutations of B.1.1.7 UK, B.1.351 RSA and B.1.617.2 India (Delta) variants; type: cell-based; conditions: read-out: IC50 in the range for all the pseudovirus variants
pIC50: −log10 of the molar value.
Measured Parameter: pIC50

[[record]]
compound = "O=C(O)c1cccc(-c2ccc(/C=C3\\SC(=S)N(CCc4ccccc4)C3=O)o2)c1 [Compound 2]"
result = "7.05 to 7.46"

